# E. coli MurF (Escherichia coli, UniProt P11880): IC50 values follow
# Sequence (P11880 whole entry): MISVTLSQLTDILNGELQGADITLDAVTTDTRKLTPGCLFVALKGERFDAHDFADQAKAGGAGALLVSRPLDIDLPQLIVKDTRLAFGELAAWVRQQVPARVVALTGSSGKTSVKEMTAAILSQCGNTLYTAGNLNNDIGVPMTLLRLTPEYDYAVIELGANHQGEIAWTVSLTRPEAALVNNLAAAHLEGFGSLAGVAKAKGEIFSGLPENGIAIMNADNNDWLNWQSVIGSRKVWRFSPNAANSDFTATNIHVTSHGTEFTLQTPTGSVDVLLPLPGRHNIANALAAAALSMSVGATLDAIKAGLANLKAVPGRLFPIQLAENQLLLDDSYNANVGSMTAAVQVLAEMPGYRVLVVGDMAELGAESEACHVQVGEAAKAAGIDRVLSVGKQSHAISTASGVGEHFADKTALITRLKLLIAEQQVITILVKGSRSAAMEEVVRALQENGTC
# number only, unit µM dropped from output

Input: Please look up its IC50: "Cc1cc(-c2ccco2)cc(C)c1/C=C/c1cncc(-c2nn[nH]n2)c1"
Output: 59

Input: What do you have for "Nc1ccc(C#Cc2cncnc2Nc2ccc(OCc3cccc(F)c3)c(Cl)c2)cc1" ?
Output: 39

Input: And CCCN1CCCC(c2ccc(Nc3nc(Nc4cc(F)ccc4C(N)=O)c4cc[nH]c4n3)c(OC)c2)C1 (stereo not shown) ?
Output: 66

# context switch: different compound, same IC50
Input: Could you tell me which IC50 is on file for "N#Cc1ccc(Oc2nccc(-c3c(-c4ccc(F)cc4)ncn3C3CCNCC3)n2)cc1" ?
Output: 95
